- ASSAY METHOD TEXT: self-splicing fitness, log relative to wild type (ln ratio); higher = more splicing; Tetrahymena group I intron in knt gene, E. coli kanamycin selection, DiMSum; sequences stand for … in CUCUCU…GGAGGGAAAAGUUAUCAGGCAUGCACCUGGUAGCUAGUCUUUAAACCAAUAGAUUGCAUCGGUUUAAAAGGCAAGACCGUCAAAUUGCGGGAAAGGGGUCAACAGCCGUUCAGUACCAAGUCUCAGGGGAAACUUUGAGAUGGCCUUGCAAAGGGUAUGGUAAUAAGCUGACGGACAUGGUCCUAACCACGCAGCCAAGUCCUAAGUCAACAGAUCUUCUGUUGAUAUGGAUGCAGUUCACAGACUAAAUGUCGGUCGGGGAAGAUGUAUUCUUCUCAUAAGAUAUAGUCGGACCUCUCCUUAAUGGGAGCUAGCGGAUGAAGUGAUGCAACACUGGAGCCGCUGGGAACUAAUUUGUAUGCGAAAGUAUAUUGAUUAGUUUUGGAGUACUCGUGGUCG;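 further: selection with 25 µg/mL kanamycin versus none on LB agar overnight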
- PROTOCOL CONDITIONS: 30 °C
Recorded self-splicing fitness (ln), one value per entry.
Lab note: write the figure by itself, no unit.

{"columns": ["RESIDUE CODES", "self-splicing fitness (ln)"],
 "data": [
  ["ACUGAGCAAUAUUACGUUAA", -4.3],
  ["GCUGAGCAAUAUUACGCGUG", -1.54],
  ["UAGCAGCAAUAUUACGCGCA", -0.588],
  ["AGUCAGCAAUAUUACGGUGU", -1.32],
  ["GGCUAGCAAUAUUACGGUCG", 0.0358],
  ["GCGCAGCAAUAUUACGGCAU", -0.756]
]}

The measured self-splicing fitness (ln) associated with GACCAGCAAUAUUACGGAAG reads -1.42

Documented self-splicing fitness (ln) of CUUAAGCAAUAUUACGAUUA : -3.71

// sample UUCGAGCAAUAUUACGGCCC , its self-splicing fitness (ln) was -1.75

====

In this section we review reported self-splicing fitness (ln) values for a set of sequences.
- ASSAY METHOD TEXT: self-splicing fitness, log relative to wild type (ln ratio); higher = more splicing; Tetrahymena group I intron in knt gene, E. coli kanamycin selection, DiMSum; sequences stand for … in CUCUCU…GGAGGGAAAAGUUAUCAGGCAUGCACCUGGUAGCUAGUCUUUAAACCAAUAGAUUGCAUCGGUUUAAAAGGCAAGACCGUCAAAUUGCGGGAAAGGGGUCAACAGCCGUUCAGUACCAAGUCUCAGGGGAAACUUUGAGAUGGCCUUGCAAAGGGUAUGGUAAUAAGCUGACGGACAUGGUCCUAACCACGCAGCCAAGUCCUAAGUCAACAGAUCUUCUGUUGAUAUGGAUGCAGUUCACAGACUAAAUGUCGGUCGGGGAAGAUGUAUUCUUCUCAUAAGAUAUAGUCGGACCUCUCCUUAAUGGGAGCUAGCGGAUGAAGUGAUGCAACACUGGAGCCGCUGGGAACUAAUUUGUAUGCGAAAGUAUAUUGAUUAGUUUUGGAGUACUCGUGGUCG
- PROTOCOL CONDITIONS: 30 °C
Lab note: jot down the number only; don't add units.

{"columns": ["RESIDUE CODES", "self-splicing fitness (ln)"],
 "data": [
  ["CGCGAGCAAUAUUACGAGGA", -3.16],
  ["AACAAGCAAUAUUACGACGC", -0.761],
  ["GAUCAGCAAUAUUACGAAUA", -0.747]
]}

Record GGUCAGCAAUAUUACGGCAU . Reported self-splicing fitness (ln): -0.469

====

- ASSAY METHOD TEXT: self-splicing fitness, log relative to wild type (ln ratio); higher = more splicing; Tetrahymena group I intron in knt gene, E. coli kanamycin selection, DiMSum; sequences stand for … in CUCUCU…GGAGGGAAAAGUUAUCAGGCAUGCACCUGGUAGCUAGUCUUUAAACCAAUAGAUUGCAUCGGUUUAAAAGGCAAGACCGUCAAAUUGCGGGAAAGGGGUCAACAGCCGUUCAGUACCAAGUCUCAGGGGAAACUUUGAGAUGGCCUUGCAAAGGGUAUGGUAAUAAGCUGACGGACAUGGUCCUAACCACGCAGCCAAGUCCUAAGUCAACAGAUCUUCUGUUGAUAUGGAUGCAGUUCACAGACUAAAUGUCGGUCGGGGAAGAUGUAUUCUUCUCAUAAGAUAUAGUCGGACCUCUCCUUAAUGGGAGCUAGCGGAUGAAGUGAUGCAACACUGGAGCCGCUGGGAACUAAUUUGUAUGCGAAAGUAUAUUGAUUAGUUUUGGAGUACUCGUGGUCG
- PROTOCOL CONDITIONS: 30 °C
REPORTED ENDPOINT: self-splicing fitness (ln)

Please review the entries below; each comes with its answer.
{"columns": ["RESIDUE CODES", "RESULT"],
 "data": [
  ["UCAGAGCAAUAUUACGAACG", -3.12],
  ["CUAUAGCAAUAUUACGUAGG", -1.44],
  ["UUCAAGCAAUAUUACGAGUU", -2.6],
  ["GACAAGCAAUAUUACGCGUG", -2.54],
  ["UGUCAGCAAUAUUACGUAAU", -1.03]
]}

The measured self-splicing fitness (ln) associated with UCAGAGCAAUAUUACGCUAU reads -3.45

Noted for AGAUAGCAAUAUUACGGAUA : its self-splicing fitness (ln) reads -4.2

GCAAAGCAAUAUUACGACCG has a reported self-splicing fitness (ln) of -0.859

self-splicing fitness (ln) reading for AAUUAGCAAUAUUACGUUUC : -2.89

self-splicing fitness (ln) measured on UCGAAGCAAUAUUACGCGGC = -3.35

Just so you know, measured self-splicing fitness (ln) for GAAAAGCAAUAUUACGCAUA came out at -1.72

Item: AUGAAGCAAUAUUACGACCU | self-splicing fitness (ln): 0.893

self-splicing fitness (ln) in this record for CUACAGCAAUAUUACGCCAC : -3.68

Form: sequence = ACGCAGCAAUAUUACGGGCG ; self-splicing fitness (ln) = -1.5

What the record says about CGGGAGCAAUAUUACGAUUG : self-splicing fitness (ln) is -2.22

The reported self-splicing fitness (ln) of the sequence GUUCAGCAAUAUUACGGGCG was -1.57

Measured self-splicing fitness (ln) of AAACAGCAAUAUUACGACAU : -0.514

Reported self-splicing fitness (ln) for GGAAAGCAAUAUUACGAUAA was -1.32

For CAUCAGCAAUAUUACGCCGC the sequence record lists self-splicing fitness (ln) as -3.14

sequence UACGAGCAAUAUUACGCACU , self-splicing fitness (ln) observed: -2.42

self-splicing fitness (ln) in this record for AUCGAGCAAUAUUACGUAGG : -3.82

Briefly, self-splicing fitness (ln) measured for CCUGAGCAAUAUUACGAGGU : -2.72

What the record says about ACCAAGCAAUAUUACGUUUC : self-splicing fitness (ln) is -4.28

// self-splicing fitness (ln) lookup, sequence = ACCCAGCAAUAUUACGGGCC , result: -3.49

====

- ASSAY METHOD TEXT: self-splicing fitness, log relative to wild type (ln ratio); higher = more splicing; Tetrahymena group I intron in knt gene, E. coli kanamycin selection, DiMSum; sequences stand for … in CUCUCU…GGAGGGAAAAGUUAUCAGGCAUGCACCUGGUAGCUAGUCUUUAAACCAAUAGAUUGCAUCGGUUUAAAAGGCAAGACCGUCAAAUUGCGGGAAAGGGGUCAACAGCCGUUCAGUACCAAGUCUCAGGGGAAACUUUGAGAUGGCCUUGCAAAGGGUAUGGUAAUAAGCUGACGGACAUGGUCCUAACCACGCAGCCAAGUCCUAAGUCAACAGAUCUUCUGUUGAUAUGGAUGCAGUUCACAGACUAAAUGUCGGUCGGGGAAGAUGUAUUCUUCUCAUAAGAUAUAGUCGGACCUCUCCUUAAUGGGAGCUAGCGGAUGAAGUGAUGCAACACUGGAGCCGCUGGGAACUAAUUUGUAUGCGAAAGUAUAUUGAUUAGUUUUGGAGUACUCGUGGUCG
- PROTOCOL CONDITIONS: 30 °C
REPORTED ENDPOINT: self-splicing fitness (ln)
Simply state the number, no unit and no words.

The sequence listed as GUAUAGCAAUAUUACGCGGA has a reported self-splicing fitness (ln) of -3.08

Recorded result, GUUUAGCAAUAUUACGCUUU , self-splicing fitness (ln): -2.38

Entry UGAAAGCAAUAUUACGAUAC , self-splicing fitness (ln) reported as -2.87

====

- ASSAY METHOD TEXT: self-splicing fitness, log relative to wild type (ln ratio); higher = more splicing; Tetrahymena group I intron in knt gene, E. coli kanamycin selection, DiMSum; sequences stand for … in CUCUCU…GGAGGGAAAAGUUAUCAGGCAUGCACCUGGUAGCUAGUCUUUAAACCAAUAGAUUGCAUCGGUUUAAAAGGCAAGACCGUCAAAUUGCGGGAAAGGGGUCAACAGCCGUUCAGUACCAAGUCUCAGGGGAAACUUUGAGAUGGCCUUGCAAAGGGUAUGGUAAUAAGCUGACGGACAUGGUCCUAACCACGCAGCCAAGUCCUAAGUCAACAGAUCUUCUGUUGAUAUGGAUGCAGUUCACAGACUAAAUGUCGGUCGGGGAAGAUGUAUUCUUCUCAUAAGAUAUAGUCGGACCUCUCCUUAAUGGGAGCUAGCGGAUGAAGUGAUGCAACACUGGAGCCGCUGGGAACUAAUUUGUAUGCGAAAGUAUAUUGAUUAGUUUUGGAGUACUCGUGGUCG
- PROTOCOL CONDITIONS: 30 °C
Param threshold (-3) applies to self-splicing fitness (ln); output true (1) when value >= threshold, false (0) when value < threshold.

{"columns": ["RESIDUE CODES", "CAT"],
 "data": [
  ["UGUAAGCAAUAUUACGUCUA", "true (1)"],
  ["AUGGAGCAAUAUUACGCCGC", "true (1)"],
  ["ACAGAGCAAUAUUACGGAAG", "false (0)"],
  ["UCGAAGCAAUAUUACGACCU", "true (1)"],
  ["GUGUAGCAAUAUUACGACAU", "true (1)"],
  ["CAAUAGCAAUAUUACGCCCA", "true (1)"]
]}

Q: Answer whether self-splicing fitness (ln) of GUCUAGCAAUAUUACGAAAA is greater than or equal to -3.
Ans: true (1)

Q: Say whether GACUAGCAAUAUUACGGAUU shows self-splicing fitness (ln) of -3 or more.
Ans: true (1)

Q: Textbook exercise: given the entry CGUGAGCAAUAUUACGAGUU , state whether its self-splicing fitness (ln) is greater than or equal to -3.
Ans: false (0)

Q: Has CGGUAGCAAUAUUACGGUCC a recorded self-splicing fitness (ln) greater than or equal to -3?
Ans: true (1)

Q: Does self-splicing fitness (ln) meet or surpass -3 for CGCAAGCAAUAUUACGUUAC ?
Ans: false (0)

Q: Dear colleague, could you confirm whether CCUGAGCAAUAUUACGAUUC has self-splicing fitness (ln) at or above -3?
Ans: false (0)

Q: Has UCCUAGCAAUAUUACGACUU a recorded self-splicing fitness (ln) greater than or equal to -3?
Ans: false (0)
